# Test system: MALME-3M melanoma
# assay details: NCI tumour cell line growth inhibition, 48 h
assay readout: TGI

Exercise: Reported TGI, molecule COc1cc2c3c(n(CCCO)c(=O)c2cc1OC)-c1cc2c(cc1C3=O)OCO2 : ____
Solution: > 100 µM

Exercise: What do you get for CC(C)(C)C(=O)Nc1ccccc1Br ?
Solution: > 100 µM

Exercise: What do you get for CCC(C)C1=C(O)[N+]2([O-])Oc3ccc(-c4c(O)c(O)c(-c5ccc(O)cc5)c(OC(C)=O)c4OC(C)=O)cc3OC2(C(C)CC)C(=O)N1O (centres undefined) ?
Solution: > 50 µM

Exercise: What do you get for CCOC(=O)C12C3CCC1C2C(=O)C3 (centres undefined) ?
Solution: > 100 µM

Exercise: What do you get for COC(=O)/C=C1\SC(=Nc2ccc(C(F)(F)F)cc2)N(CCc2c[nH]c3ccccc23)C1=O ?
Solution: 3.3 µM

Exercise: What do you get for CN(C)Cc1cc(N=Nc2c(Cl)cccc2Cl)ccc1O ?
Solution: > 100 µM

Exercise: What do you get for Cc1cccc(/C=N/NC(=S)NC2CCCCC2)n1 ?
Solution: > 86.4 µM

Exercise: What do you get for CCOC(=O)c1nc2cc(F)c(F)cc2nc1NCc1cc(OC)c(OC)c(OC)c1 ?
Solution: > 100 µM

Exercise: What do you get for CCOC(=O)NC(Nc1cccc(F)c1)(C(F)(F)F)C(F)(F)F ?
Solution: > 100 µM

Exercise: What do you get for COc1cccc2c(Nc3ccc(C(=O)NCCNCCO)cc3)cc(-c3ccccc3)nc12 ?
Solution: 37.9 µM

Exercise: What do you get for CC12CC(=O)OC(Cc3ccccc31)O2 (centres undefined) ?
Solution: > 100 µM

Exercise: What do you get for N#Cc1c(-c2cccc(Br)c2)cc(-c2ccc(Cl)cc2)nc1N ?
Solution: 70.9 µM

Exercise: What do you get for COC1C(=[N+]=[N-])C(=O)NC(=O)N1C1OC(COC(c2ccccc2)(c2ccccc2)c2ccccc2)C(O)C1O (centres undefined) ?
Solution: 33.8 µM

Exercise: What do you get for O=c1ccc(-c2ccc(-n3ccnc3)cc2)nn1CCO ?
Solution: > 100 µM

Exercise: What do you get for CCOC(=O)N(C)CCC1CC=CC(=O)C1c1cccc(OC)c1OC (centres undefined) ?
Solution: 60.1 µM

Exercise: What do you get for O=C1C(c2ccc(Cl)cc2)=[N+]([O-])c2ccccc21 ?
Solution: 31.8 µM

Exercise: What do you get for COc1cc(/C=C2\CC(C)CC3C2=NN(c2ccccc2)C3c2cc(OC)c(OC)c(OC)c2)cc(OC)c1OC (centres undefined) ?
Solution: > 100 µM

Exercise: What do you get for Cc1ccc(/C(O)=C/c2nc3ccccc3nc2NC23CC4CC(CC(C4)C2)C3)cc1 ?
Solution: > 10 µM

Exercise: What do you get for COc1ccc(/C=C/C(=O)/C=C(/C=C/c2ccc(OC)c(OC)c2)OB(F)F)cc1OC ?
Solution: 4.25 µM

Exercise: What do you get for Cc1ccc(C)c(-n2c(-c3ccc(Br)cc3)csc2=NC(=O)c2ccccc2F)c1 ?
Solution: > 100 µM

Exercise: What do you get for O=C(c1c(F)c(F)c(F)c(F)c1F)n1c(=O)[nH]c2ccccc21 ?
Solution: 28.5 µM

Exercise: What do you get for CC1=C2C(=CC(C)(CO)C2O)C(=O)C(C)(O)C12CC2 (centres undefined) ?
Solution: 0.0105 µM

Exercise: What do you get for Clc1ccccc1-c1nn2c(CCCCCCCCc3nnc4sc(-c5ccccc5Cl)nn34)nnc2s1 ?
Solution: > 100 µM

Exercise: What do you get for CC(C)C(=O)CC(Sc1ccc(N)cc1)c1ccccc1 (centres undefined) ?
Solution: > 100 µM

Exercise: What do you get for CCOC(=O)NC(OCCN(C)C)(C(F)(F)F)C(F)(F)F ?
Solution: > 100 µM

Exercise: What do you get for O=C(Nc1ncc([N+](=O)[O-])s1)c1cccc([N+](=O)[O-])c1 ?
Solution: 8.5 µM

Exercise: What do you get for O=C(/C=C/c1ccsc1)c1cccs1 ?
Solution: > 100 µM

Exercise: What do you get for CC1(c2ccccc2)CC12C(=O)NC(=O)NC2=O (centres undefined) ?
Solution: > 100 µM

Exercise: What do you get for Cc1cc2c(c(C=Nc3ccc(N(C)C)cc3)c1)OC1(C=C2)Oc2ccccc2C(=O)N1C (centres undefined) ?
Solution: 33.4 µM

Exercise: What do you get for Cc1c(C(=O)CCl)c(=O)n(-c2ccccc2)n1C ?
Solution: 6.98 µM

Exercise: What do you get for CC1=CCP(C(F)(F)F)P(C(F)(F)F)C1 (centres undefined) ?
Solution: > 100 µM

Exercise: What do you get for c1ccc2nc3c(nc2c1)sc1nc2ccccc2n13 ?
Solution: > 100 µM

Exercise: What do you get for COC(=O)C1=C(O)C(C(=O)OC)[C@]2(O)[C@H](C(=O)OC)[C@H]1C[C@@H](c1ccc(O)cc1)[C@H]2C(=O)OC (some centres undefined) ?
Solution: > 100 µM

Exercise: What do you get for COc1ccc(/C=C/C(=N/NC(=O)N/N=C(/C=C/c2ccc(OC)cc2)C(C)C)C(C)C)cc1 ?
Solution: > 100 µM

Origin of measurements: PubChem BioAssay (NCI)
